molecular target: T1, human urokinase-type plasminogen activator receptor (uPAR, CD87), cell-bound (human, UniProt Q03405 23-305); assay: FACS, B300.19 cells expressing human uPAR, anti-human gamma Cy5
T1 construct: whole, on cells; On B300.19 or L929 transfectants (full length cDNA), or native on U937 and PC-3 cells
T1 sequence (Q03405 23-305): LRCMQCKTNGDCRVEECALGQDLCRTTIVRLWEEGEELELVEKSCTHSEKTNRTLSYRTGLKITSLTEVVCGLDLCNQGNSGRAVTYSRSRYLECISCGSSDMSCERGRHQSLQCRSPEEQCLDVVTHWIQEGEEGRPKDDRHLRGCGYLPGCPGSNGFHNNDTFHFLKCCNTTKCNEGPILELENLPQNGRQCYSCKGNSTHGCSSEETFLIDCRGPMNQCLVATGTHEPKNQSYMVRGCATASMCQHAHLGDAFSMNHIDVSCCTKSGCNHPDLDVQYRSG
Listing of entries alongside the reported gCy5 Geo Mean Pos Cells.
Give the figure by itself; no unit, no explanation.

Name the reported gCy5 Geo Mean Pos Cells value associated with the binder anti-uPAR monoclonal antibody 4.19.1 (antibody, V domains shown) VH: EVQLVESGGGLIQPGGSLRLSCAASGFSVSSNYMNWVRQAPGKGLEWVSVIYTGGSTYYADSVKGRFTISRDNSKNTLYLQMNSLRAEDTAVYYCARDTYLYGMDVWGQGTTVTVSS VL: EIVMTQSPATLSVSPGESATLSCRTSQSVSSNLAWYQQKPGQTPRLLIYGASARATGVPARFSGSGSGTEFTLTISSLQSEDFAVYYCQQYYNWPLTFGGGTKVEIK
412

Name the reported gCy5 Geo Mean Pos Cells value associated with the binder fully human monoclonal antibody 4.18.1 (ATCC Accession Number PTA-7476) (antibody, V domains shown) VH: EVQLVESGGGLIQPGGSLRLSCAASGFTVRNNYMNWVRQAPGKGLEWVSVIYTGGSTYYADSVKGRFTISRDNSRNTLYLQMNSLRAEDTAVYYCAREGAVAGFDYWGQGTLVTVSL VL: EIVMTQFPATLSMSPGERATLSCRASQSVSSSLAWYQQTPGQAPRLLIYGASTRSTGFPARFSGIGSGTEFTLTISSLQSEDFAVYYCQQYGNWPLTFGQGTRLEIK
251
